Target: FLT3 (Homo sapiens)
Sequence (P36888 27-993): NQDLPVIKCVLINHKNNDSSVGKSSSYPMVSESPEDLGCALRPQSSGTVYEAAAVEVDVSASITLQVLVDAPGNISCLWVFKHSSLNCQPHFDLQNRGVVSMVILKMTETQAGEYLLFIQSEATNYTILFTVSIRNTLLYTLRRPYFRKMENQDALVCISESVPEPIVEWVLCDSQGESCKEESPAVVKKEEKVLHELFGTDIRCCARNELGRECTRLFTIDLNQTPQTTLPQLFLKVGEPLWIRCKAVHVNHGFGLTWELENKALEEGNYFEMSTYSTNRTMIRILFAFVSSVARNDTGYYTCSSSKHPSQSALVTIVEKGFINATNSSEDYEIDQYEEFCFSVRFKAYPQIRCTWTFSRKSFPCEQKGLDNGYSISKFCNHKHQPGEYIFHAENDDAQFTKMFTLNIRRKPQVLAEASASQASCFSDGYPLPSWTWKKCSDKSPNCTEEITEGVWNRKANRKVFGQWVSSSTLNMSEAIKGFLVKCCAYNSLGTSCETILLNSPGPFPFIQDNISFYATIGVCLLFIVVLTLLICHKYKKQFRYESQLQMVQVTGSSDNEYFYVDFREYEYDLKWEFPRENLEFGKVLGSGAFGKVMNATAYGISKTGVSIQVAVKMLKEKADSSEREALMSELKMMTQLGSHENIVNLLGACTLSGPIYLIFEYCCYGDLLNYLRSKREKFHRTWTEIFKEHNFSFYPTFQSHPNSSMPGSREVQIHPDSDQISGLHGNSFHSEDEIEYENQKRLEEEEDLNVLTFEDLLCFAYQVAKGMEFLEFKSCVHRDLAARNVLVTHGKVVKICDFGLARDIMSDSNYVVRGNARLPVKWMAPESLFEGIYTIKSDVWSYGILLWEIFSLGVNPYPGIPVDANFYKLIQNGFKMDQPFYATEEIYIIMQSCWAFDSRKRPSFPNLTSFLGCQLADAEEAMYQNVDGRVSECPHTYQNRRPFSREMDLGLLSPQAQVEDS
Recorded measurements of IC50, one per entry

Completed entries (count: 3):
Compound structure: COC[C@H](C)Nc1ncc2c([C@H]3CCCN(c4ccnc(C)n4)C3)cc([C@H]3CC[C@H](O)CC3)n2n1
Tgt: FLT3 (Homo sapiens)
IC50: 1 to 10 µM
--
Compound structure: C[C@@H](CC(F)(F)F)Nc1ncc2c(-c3ccc([S@@](C)(=N)=O)nc3)cc([C@H]3CC[C@H](O)CC3)n2n1
Tgt: FLT3 (Homo sapiens)
IC50: ≤ 0.1 µM
--
Compound structure: COC[C@H](C)Nc1ncc2c(-c3cnn(CC(=O)NS(C)(=O)=O)c3)cc([C@H]3CC[C@H](O)CC3)n2n1
Tgt: FLT3 (Homo sapiens)
IC50: 1 to 10 µM

Alright, here's another compound for you.
Noted for `COC[C@H](C)Nc1ncc2c(-c3ccc(N4CCOCC4)nc3)cc([C@H]3CC[C@H](O)CC3)n2n1` : its IC50 reads 0.1 to 1 µM

Data origin: patent US11040981B2
